All values here come from ChEMBL document CHEMBL5537195.

Tested on: PANC-1
Experiment: Antiproliferative activity against human PANC-1 cells assessed as inhibition of cell growth incubated for 72 hrs by CCK-8 assay
Assay type: functional, cell-based
Conditions: PANC-1, 72 h
Readout Name: IC50 (nM)
Give the value, in units of nM, as a plain number.

*Q* Find IC50 (PANC-1) for the entry C#CCN(Cc1ccc(S(=O)(=O)N(C)C#C)cc1)c1ccc(-c2nc3ccccc3s2)cc1
*A* 20

* * *

Test: Half life in Sprague-Dawley rat at 2 mg/kg, iv measured upto 48 hrs by LC-MS/MS analysis
Format: ADME, organism-based
Settings: in vivo
Readout Name: half-life (h)
Give the value, in units of h, as a plain number.

*Q* Consider the molecule C#CCN(Cc1ccc(S(=O)(=O)N(C)C#C)cc1)c1ccc(-c2nc3ccccc3s2)cc1 and give its measured half-life.
*A* 2.55
